Recorded growth values for a group of molecules are listed next.
test system: HS 578T breast; test: NCI-60 one-dose screen, 48 h (100 = growth as untreated, 0 = no growth, -100 = all killed); settings: 10 µM unless noted
This is part of a sample that, as a whole, favours compounds with a hit. Of some 83,000 tested, about 20% had one in any assay.
Numbers only; they are read as %.

Observe how each entry below is paired with its result.
1. ClC1=C(Cl)C(Cl)=C(Cl)C1=Cc1ccc(Cl)cc1 = -12.2
2. CCOC(=O)C1=NN(c2ccc(Cl)cc2)C2C3N(c4ccc(Cl)cc4)N=C(C(=O)OCC)N3c3ccccc3N12 (stereo unspecified) = 120
3. O=C(c1ccccc1)c1ccco1 = 118
4. O=C1/C(=C/c2ccc([N+](=O)[O-])s2)Oc2ccc(Br)cc21 = 16.2
5. O=c1[nH]c(=O)n(C2CC(O)C(CO)O2)cc1C(F)(F)F (stereo unspecified) = 70.8

Under HS 578T breast, report growth for "Cc1cc(NC(=O)Nc2cc(Cl)ccc2C)no1" 125

Under HS 578T breast, report growth for "O=C1NCN(c2ccccc2)C12CCN(CCCC(c1ccc(F)cc1)c1ccc(F)cc1)CC2" 69.3

Under HS 578T breast, report growth for "COc1ccc(/C=C2\COc3ccc(O)c(O)c3C2=O)cc1OC" 17.8

Under HS 578T breast, report growth for OC(Cc1cccnc1)c1ccccc1 (stereo unspecified) 112

Under HS 578T breast, report growth for "Cc1nn(-c2ccccc2)c(Cl)c1C(CC(=O)c1ccc(Cl)cc1)CC(=O)c1ccc(Cl)cc1" 97.3

Under HS 578T breast, report growth for O=c1ccn(C2CCCO2)c(=O)[nH]1 (stereo unspecified) 112

Under HS 578T breast, report growth for "C/C(=C\CCc1ccsc1)CC/C=C(\C)CCCN1CCC(CO)CC1" 28.3

Under HS 578T breast, report growth for "Nc1nc(N)c([N+](=O)[O-])c(=O)[nH]1" 100

Under HS 578T breast, report growth for CC(C)COCC(CN(Cc1ccccc1)c1ccccc1)N1CCCC1 (stereo unspecified) 81.6

====

test system: K-562 leukemia; test: NCI-60 one-dose screen, 48 h (100 = growth as untreated, 0 = no growth, -100 = all killed); settings: 10 µM unless noted
Compounds without any hit were thinned out: in the full panel of roughly 83,000, 20% have a hit.
Label satisfied when growth is at or above 50%; anything below gets not satisfied.

Check out these entries, answers already filled in.
1. Nc1ccc(C2=NN(c3ccccc3)C(c3ccc(Cl)cc3)C2)cc1 (stereo unspecified) = not satisfied
2. COc1ccc(C(=O)Nc2nc(-c3ccc(Cl)cc3)cs2)cc1 = satisfied
3. COc1ccc2nccc(/C=C/c3ccnc4ccc(OC)cc34)c2c1 = satisfied
4. CN1CCN(CC(=O)Nc2nc3c(s2)Nc2cc(Cl)c(Cl)cc2NC3=O)CC1 = satisfied
5. CCn1c2c(c3ccccc31)SC1c3cccn3CCN1C2=S (stereo unspecified) = satisfied

Form field: growth at least 50%? Entry: "O=C(Nc1cccc(-n2cc(-c3ccncc3)c(-c3ccc(O)c(Cl)c3)n2)c1)Nc1ccc(Cl)c(C(F)(F)F)c1" not satisfied

Form field: growth at least 50%? Entry: "O=C(/C(=C/c1cccc([N+](=O)[O-])c1)c1ccccc1)c1ccccc1" not satisfied

Form field: growth at least 50%? Entry: "NC(=O)SCC(=O)Nc1ccccc1-c1ccccc1" satisfied

Form field: growth at least 50%? Entry: "O=C1N(C2CCCCC2)C(=O)N1C1CCCCC1" satisfied

Form field: growth at least 50%? Entry: "c1ccc(-c2nnc(Nc3nnc(-c4ccccc4)s3)s2)cc1" satisfied

Form field: growth at least 50%? Entry: CC12CCCCC1C(C(N)=O)C(=O)O2 (stereo unspecified) satisfied
